FYI, the data here is from ChEMBL document CHEMBL2396632.

- Tested On: Calcitonin gene-related peptide type 1 receptor (Homo sapiens, UniProt O60894+Q16602)
- Sequence (Q16602 whole entry, one chain of several): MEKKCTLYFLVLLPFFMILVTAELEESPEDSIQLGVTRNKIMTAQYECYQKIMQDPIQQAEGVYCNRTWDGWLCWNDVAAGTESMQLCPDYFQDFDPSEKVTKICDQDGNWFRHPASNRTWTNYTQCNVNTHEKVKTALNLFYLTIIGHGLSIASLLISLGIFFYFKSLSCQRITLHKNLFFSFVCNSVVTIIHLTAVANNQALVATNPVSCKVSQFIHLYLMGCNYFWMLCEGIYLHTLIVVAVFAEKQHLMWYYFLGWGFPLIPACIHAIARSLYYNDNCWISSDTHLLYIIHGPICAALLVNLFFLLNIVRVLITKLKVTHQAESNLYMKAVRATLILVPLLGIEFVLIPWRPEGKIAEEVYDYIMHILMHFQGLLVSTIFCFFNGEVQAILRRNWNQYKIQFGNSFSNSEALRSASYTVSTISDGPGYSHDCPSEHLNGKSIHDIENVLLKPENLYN
- Test Description: Displacement of [125I]-CGRP from CGRP receptor in human SK-N-MC cell membranes after 2 hrs by scintillation counting analysis
Property: Ki (nM)
Give the value, in units of nM, as a plain number.

For reference, reported Ki for `Cc1cc(C[C@@H](NC(=O)N2CCC(c3cc4ccccc4[nH]c3=O)CC2)C(=O)N2CCN(C3CCN(C)CC3)CC2)cc2cn[nH]c12` stands at 0.023

###

- Tested On: Calcitonin gene-related peptide type 1 receptor (Homo sapiens, UniProt O60894+Q16602)
- Test Description: Antagonist activity at human CGRP receptor
Property: pKi
pKi is a log-scale quantity: -log10 of the concentration expressed in molar.

Value of pKi reported for the compound `O=C(CN1C(=O)C2(CCCC2)NC[C@H]1c1cc(F)cc(F)c1)Nc1ccc2c(c1)C[C@@]1(C2)C(=O)Nc2ncccc21` is 10.68

###

- Test Description: Tmax in intranasally dosed New Zealand White rabbit
- Format: ADME, organism-based, Oryctolagus cuniculus
- Experimental Setup: in vivo, inhaled or intranasal
Property: Tmax (min)
# unit: min | format: bare number

Form field Tmax, entry `Cc1cc(C[C@@H](NC(=O)N2CCC(c3cc4ccccc4[nH]c3=O)CC2)C(=O)N2CCN(C3CCN(C)CC3)CC2)cc2cn[nH]c12` : 15

###

- Test Description: Cmax in intranasally dosed New Zealand White rabbit
- Assay type: ADME, organism-based, Oryctolagus cuniculus
- Design: route nasal
- Experimental Setup: in vivo, inhaled or intranasal
Property: Cmax (nM)
Please respond with the number in nM and leave the unit unwritten.

Looking up Cc1cc(C[C@@H](NC(=O)N2CCC(c3cc4ccccc4[nH]c3=O)CC2)C(=O)N2CCN(C3CCN(C)CC3)CC2)cc2cn[nH]c12 [ZAVEGEPANT] , I see its Cmax listed as 120

###

- Tested On: hERG (Homo sapiens, UniProt Q12809)
- Sequence (Q12809 whole entry): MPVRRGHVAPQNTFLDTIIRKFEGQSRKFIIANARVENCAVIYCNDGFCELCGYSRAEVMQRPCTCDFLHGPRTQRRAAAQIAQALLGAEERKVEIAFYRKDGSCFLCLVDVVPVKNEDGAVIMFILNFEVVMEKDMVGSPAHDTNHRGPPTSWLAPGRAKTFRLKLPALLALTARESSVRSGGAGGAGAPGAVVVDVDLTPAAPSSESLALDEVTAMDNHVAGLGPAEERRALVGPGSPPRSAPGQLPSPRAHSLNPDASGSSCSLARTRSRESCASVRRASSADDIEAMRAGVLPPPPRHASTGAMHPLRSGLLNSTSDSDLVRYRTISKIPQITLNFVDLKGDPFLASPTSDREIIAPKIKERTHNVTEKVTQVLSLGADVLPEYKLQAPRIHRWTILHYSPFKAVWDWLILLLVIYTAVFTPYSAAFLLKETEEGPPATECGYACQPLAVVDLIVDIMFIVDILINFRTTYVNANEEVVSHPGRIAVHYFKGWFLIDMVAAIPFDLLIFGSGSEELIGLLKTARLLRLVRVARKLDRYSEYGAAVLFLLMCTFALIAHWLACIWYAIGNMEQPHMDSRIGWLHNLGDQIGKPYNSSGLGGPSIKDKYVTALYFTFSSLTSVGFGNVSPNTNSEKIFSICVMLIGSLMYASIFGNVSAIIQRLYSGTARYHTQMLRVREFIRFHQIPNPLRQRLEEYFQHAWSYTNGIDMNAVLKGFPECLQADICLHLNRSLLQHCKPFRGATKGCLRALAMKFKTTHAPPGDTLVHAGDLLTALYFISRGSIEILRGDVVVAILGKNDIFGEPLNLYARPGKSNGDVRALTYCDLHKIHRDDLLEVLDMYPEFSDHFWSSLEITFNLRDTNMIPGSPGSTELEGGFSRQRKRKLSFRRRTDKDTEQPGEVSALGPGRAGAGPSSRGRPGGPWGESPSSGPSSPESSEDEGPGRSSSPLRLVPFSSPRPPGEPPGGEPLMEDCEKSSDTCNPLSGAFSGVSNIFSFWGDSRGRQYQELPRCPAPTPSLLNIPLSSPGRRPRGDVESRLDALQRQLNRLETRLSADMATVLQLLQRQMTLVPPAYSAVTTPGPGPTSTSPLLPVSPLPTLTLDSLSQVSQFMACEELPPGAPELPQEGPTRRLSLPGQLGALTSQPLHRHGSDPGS
- Test Description: Inhibition of human ERG at 30 uM relative to control
Property: inhibition at 30 µM
Answer with the figure and its unit, nothing else.

The reported inhibition at 30 µM of the compound `Cc1cc(C[C@@H](NC(=O)N2CCC(c3cc4ccccc4[nH]c3=O)CC2)C(=O)N2CCN(C3CCN(C)CC3)CC2)cc2cn[nH]c12` was 22%

###

- Test Description: Aqueous solubility of the compound
- Type: physicochemical
- Experimental Setup: buffer
Property: solubility

Reported solubility of `Cc1cc(C[C@@H](NC(=O)N2CCC(c3cc4ccccc4[nH]c3=O)CC2)C(=O)N2CCN(C3CCN(C)CC3)CC2)cc2cn[nH]c12` : > 300 mg/mL

###

- Test Description: Fraction unbound in human plasma
- Type: ADME, cell-free
Property: fraction unbound
Returns: the value as a bare number; no unit string appended.

fraction unbound reported for this compound Cc1cc(C[C@@H](NC(=O)N2CCC(c3cc4ccccc4[nH]c3=O)CC2)C(=O)N2CCN(C3CCN(C)CC3)CC2)cc2cn[nH]c12 [ZAVEGEPANT] : 0.37

###

- Test Description: Reversal of CGRP-induced dilation of human intracranial arterial rings
- Assay type: functional
Property: EC50 (nM)
Output spec: scalar in nM, unitless text.

// `Cc1cc(C[C@@H](NC(=O)N2CCC(c3cc4ccccc4[nH]c3=O)CC2)C(=O)N2CCN(C3CCN(C)CC3)CC2)cc2cn[nH]c12` : EC50 value = 0.88
